PROTOCOL_TEXT: Viability qHTS for spleen associated tyrosine kinase inhibitor (SYKi) naive MV4-11 cells (AID 1963823); also: nearly all actives have a fitted effect of over 40% in size
EXPERIMENTAL_SETUP: MV4-11 AML viability, CellTiter-Glo luminescence, 72 h; series mostly up to 45 µM
Results filed as inconclusive are left out. Active and inactive are the calls of the source. Calls follow the shape of the dose curve; as a rule, active = well fitted cell-killing curve with a large enough effect; inconclusive = small, poorly fitted or top-dose-only effect, or effect the other way; inactive = no such curve, though single readings can be large or run the other way.
Result category, one only: true = active, false = inactive

The examples below pair each entry with its known result.
>  <COMPOUND>
Cn1ccnc1CCOC(c1cc2nccc(C(=O)O)c2[nH]1)c1ccccc1Cl (stereo not drawn)

>  <ASSIGNED_CATEGORY>
false

$$$$
>  <COMPOUND>
c1ccc([C@H]2CN3CCSC3=N2)cc1

>  <ASSIGNED_CATEGORY>
false

$$$$
>  <COMPOUND>
COc1ccc2c(c1)c1c3n2CCN(C)C3=NCC1

>  <ASSIGNED_CATEGORY>
false

$$$$
>  <COMPOUND>
N#Cc1ccc2[nH]cc(CCCCN3CCN(c4ccc5oc(C(N)=O)cc5c4)CC3)c2c1

>  <ASSIGNED_CATEGORY>
true

$$$$
>  <COMPOUND>
Cc1nc(N)sc1-c1ccnc(Nc2ccc(N3CCOCC3)cc2)n1

>  <ASSIGNED_CATEGORY>
true

$$$$
>  <COMPOUND>
Cc1coc2ccccc2c1=O

>  <ASSIGNED_CATEGORY>
false

$$$$
>  <COMPOUND>
COC(=O)[C@@H]1CC2=CC(=O)CC[C@]2(C)[C@@]23O[C@@H]2C[C@@]2(C)[C@@H](CC[C@@]24CCC(=O)O4)[C@H]13

>  <ASSIGNED_CATEGORY>
false

$$$$

Next:
Asked: Hi, sorry to bother you, what did the test record for C=C1C(=O)OC2/C=C(\COC(C)=O)CC/C=C(\C=O)CC(OC(=O)C(C)CC)C12 (stereo not drawn) ?
Given back: true

====

PROTOCOL_TEXT: Cellular viability qHTS for adrenocortical cancer (ACC) cell line SW-13 (AID 1963989);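 also: cells grown in serum-free medium with ITS supplement; % is scaled to controls: 0 for no effect and ±100 for the full control effect; nearly all actives have a fitted effect of over 65% in size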
EXPERIMENTAL_SETUP: SW-13 ACC cells viability, CellTiter-Glo, 48 h; active compounds read low
Inconclusive results are not listed.
READOUT: activity (max response) (%)
One number for each entry, in %.

These recorded examples may help you get a feel for the data.
>  <COMPOUND>
CCC(=O)NCC[C@@H]1CCc2ccc3c(c21)CCO3

>  <UNIT_ABBREVIATION>
%

>  <activity (max response)>
-6.57

$$$$
>  <COMPOUND>
COc1ccc(-c2cc3nccn3c(Nc3ncccc3C(N)=O)n2)cc1OC

>  <UNIT_ABBREVIATION>
%

>  <activity (max response)>
-18.6

$$$$
>  <COMPOUND>
O=S1(=O)OC(c2ccc(O)cc2)(c2ccc(O)cc2)c2ccccc21

>  <UNIT_ABBREVIATION>
%

>  <activity (max response)>
-5.64

$$$$
>  <COMPOUND>
CCc1cc2cc(OC)c(OC)cc2c(Cc2ccccc2)n1

>  <UNIT_ABBREVIATION>
%

>  <activity (max response)>
-5.12

$$$$
>  <COMPOUND>
CN1C2CCC1CC(OC(=O)C(CO)c1ccccc1)C2 (stereo unspecified)

>  <UNIT_ABBREVIATION>
%

>  <activity (max response)>
-20.1

$$$$

Need activity (max response) for each of these compounds.
1. O=C(O)c1ccccc1C(=O)Nc1ccc(S(=O)(=O)Nc2nccs2)cc1
2. CN1C(N)=N[C@](C)(c2cc(NC(=O)c3ccc(F)cn3)ccc2F)CS1(=O)=O
3. CC(=O)Nc1ccc(S(=O)(=O)Nc2ccc([N+](=O)[O-])cc2)cc1
4. CC(=O)OCC(=O)Nc1cc(C#N)cc(NC(=O)COC(C)=O)c1Cl
5. NC(=O)c1ccc(-c2nc(-c3ccc4c(c3)OCO4)c(-c3ccccn3)[nH]2)cc1
6. CCOC(=O)NNc1ccc(N(CC)CC(C)O)nn1 (stereo unspecified)
7. O=C(O)Cc1cccc(-c2cc(CCCCCCc3ccc(O[C@H]4O[C@H](CO)[C@@H](O)[C@H](O)[C@@H]4O)c(-c4cccc(CC(=O)O)c4)c3)ccc2O[C@H]2O[C@H](CO)[C@@H](O)[C@H](O)[C@@H]2O)c1
8. CN(C)CCOc1ccc(/C(=C(/CCCl)c2ccccc2)c2ccccc2)cc1

Given back:
-9.68
-4.84
3.97
-0.531
-5.02
-8.2
8.49
-6.2
